- TESTED_TARGET: recombinant human PCSK9 (Homo sapiens, UniProt Q8NBP7)
- Construct: His; purchased BPS Biosciences
- Sequence (Q8NBP7 153-692): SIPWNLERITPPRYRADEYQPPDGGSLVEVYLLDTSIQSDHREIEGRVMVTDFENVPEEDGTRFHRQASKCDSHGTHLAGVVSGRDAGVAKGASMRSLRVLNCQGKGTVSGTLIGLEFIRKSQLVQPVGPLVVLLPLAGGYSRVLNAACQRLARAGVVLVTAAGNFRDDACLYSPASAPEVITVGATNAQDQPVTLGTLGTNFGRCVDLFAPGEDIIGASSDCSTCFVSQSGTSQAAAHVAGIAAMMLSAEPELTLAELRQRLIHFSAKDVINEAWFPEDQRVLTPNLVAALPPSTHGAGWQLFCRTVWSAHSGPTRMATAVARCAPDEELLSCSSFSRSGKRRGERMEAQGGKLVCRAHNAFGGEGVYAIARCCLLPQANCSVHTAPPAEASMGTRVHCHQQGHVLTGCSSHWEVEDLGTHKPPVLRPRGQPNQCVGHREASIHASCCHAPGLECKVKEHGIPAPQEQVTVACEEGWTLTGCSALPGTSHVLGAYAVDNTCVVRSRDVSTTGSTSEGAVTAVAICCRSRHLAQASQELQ
- TEST_NAME: Affinity of new peptides for recombinant human PCSK9 by surface plasmon resonance (Biacore T200)
- Assay type: binding
- CONDITIONS: peptide 50 μM, SPR, 25° C.
Non-standard residues stand in square brackets, D forms with d. Primed or numbered codes have the meaning given here. No end group written: not given here. 2‑aminophenyl pentanoic acid = 2-Aminophenyl pentanoic acid; Hyp = O=C(O)[C@@H]1C[C@@H](O)CN1; NMeI = CC[C@H](C)[C@H](NC)C(=O)O; hArg = N=C(N)NCCCC[C@H](N)C(=O)O; Cit = NC(=O)NCCC[C@H](N)C(=O)O; Nle = CCCC[C@H](N)C(=O)O; Aib = CC(C)(N)C(=O)O
Each entry below carries its recorded Binding - Response Unit(RU).

{"columns": ["SUBSTANCE", "Binding - Response Unit(RU)"],
 "data": [
  ["1 (SIPWNLERITPC; PCSK9) [compound 1]", 7.4],
  ["14 ([Aib]IPWNLERITPC) [compound 14]", 7.10],
  ["8 (SI[Hyp]WNLERITPC) [compound 8]", 5.70],
  ["12 (SIPWNLE[Cit]ITPC) [compound 12]", 3.10],
  ["5 (SIPWNLER[Aib]TPC) [compound 5]", 2.30],
  ["19 (SIP[(S)‑2‑amino‑3‑(2′-ethyl-4′-methoxy-(1,1′-biphenyl)-4-yl)propanoic acid]NLERITPC) [compound 19]", 35.15],
  ["10 (SIPWN[Aib]ERITPC) [compound 10]", 3.00],
  ["18 (SIP[2‑aminophenyl pentanoic acid]NLERITPC) [compound 18]", 10.20],
  ["7 (SIPWN[Nle]ERITPC) [compound 7]", 6.65],
  ["13 (SIPWNLERI[Aib]PC) [compound 13]", 9.75],
  ["4 (SIPWNLER[Nle]TPC) [compound 4]", 13.05],
  ["6 (SIPWNLE[hArg]ITPC) [compound 6]", 6.55],
  ["15 (S[NMeI]IPWNLERITPC) [compound 15]", 11.45]
]}

* * *

- TESTED_TARGET: recombinant human PCSK9 (Homo sapiens)
- Construct: His; purchased BPS Biosciences
- TEST_NAME: Affinity of new peptides for recombinant human PCSK9 by surface plasmon resonance (Biacore T200)
- Type: binding
- CONDITIONS: peptide 100 μM, SPR, 25° C.
Non-standard residues stand in square brackets, D forms with d. Primed or numbered codes have the meaning given here. No end group written: not given here. 2‑aminophenyl pentanoic acid = 2-Aminophenyl pentanoic acid; Hyp = O=C(O)[C@@H]1C[C@@H](O)CN1; NMeI = CC[C@H](C)[C@H](NC)C(=O)O; hArg = N=C(N)NCCCC[C@H](N)C(=O)O; Cit = NC(=O)NCCC[C@H](N)C(=O)O; Nle = CCCC[C@H](N)C(=O)O; Aib = CC(C)(N)C(=O)O

{"columns": ["SUBSTANCE", "TESTED_TARGET", "Binding - Response Unit(RU)"],
 "data": [
  ["15 (S[NMeI]IPWNLERITPC) [compound 15]", "recombinant human PCSK9 (Homo sapiens)", 29.85],
  ["18 (SIP[2‑aminophenyl pentanoic acid]NLERITPC) [compound 18]", "recombinant human PCSK9 (Homo sapiens)", 17.85],
  ["8 (SI[Hyp]WNLERITPC) [compound 8]", "recombinant human PCSK9 (Homo sapiens)", 13.25],
  ["14 ([Aib]IPWNLERITPC) [compound 14]", "recombinant human PCSK9 (Homo sapiens)", 15.00],
  ["12 (SIPWNLE[Cit]ITPC) [compound 12]", "recombinant human PCSK9 (Homo sapiens)", 6.70],
  ["7 (SIPWN[Nle]ERITPC) [compound 7]", "recombinant human PCSK9 (Homo sapiens)", 16.00],
  ["5 (SIPWNLER[Aib]TPC) [compound 5]", "recombinant human PCSK9 (Homo sapiens)", 7.10],
  ["4 (SIPWNLER[Nle]TPC) [compound 4]", "recombinant human PCSK9 (Homo sapiens)", 30.00],
  ["19 (SIP[(S)‑2‑amino‑3‑(2′-ethyl-4′-methoxy-(1,1′-biphenyl)-4-yl)propanoic acid]NLERITPC) [compound 19]", "recombinant human PCSK9 (Homo sapiens)", 85.90],
  ["10 (SIPWN[Aib]ERITPC) [compound 10]", "recombinant human PCSK9 (Homo sapiens)", 7.50],
  ["6 (SIPWNLE[hArg]ITPC) [compound 6]", "recombinant human PCSK9 (Homo sapiens)", 17.50],
  ["13 (SIPWNLERI[Aib]PC) [compound 13]", "recombinant human PCSK9 (Homo sapiens)", 37.35]
]}
